List of mean fluorescence relative to chimeric antibody values.
# system-tested: T1, pig CD47 (pig, UniProt Q9GKE8 19-303)
# T1 construct: whole, on cells; also called CD47 on pig red blood cells
# T1 sequence (looked up): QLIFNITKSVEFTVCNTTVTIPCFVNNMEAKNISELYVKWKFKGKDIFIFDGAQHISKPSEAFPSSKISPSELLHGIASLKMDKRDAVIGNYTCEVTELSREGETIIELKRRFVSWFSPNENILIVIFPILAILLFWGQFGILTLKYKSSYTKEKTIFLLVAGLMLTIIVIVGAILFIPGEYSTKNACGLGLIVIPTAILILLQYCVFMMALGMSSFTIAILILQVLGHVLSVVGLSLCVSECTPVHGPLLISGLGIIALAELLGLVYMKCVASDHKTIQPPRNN
# assay-details: flow cytometry on RBCs, antibody 10 ng/ml
parameter: mean fluorescence relative to chimeric antibody

{"binder": "pVxK7b-037-hum24-LC/pVxK7b-037-hum24-HC (antibody, human IgG1, V domains shown, Full-length human IgG1/kappa in CHO supernatant; Variable entries end within framework 4 (...FGQG / ...WGQG); also called Clone 24) VH: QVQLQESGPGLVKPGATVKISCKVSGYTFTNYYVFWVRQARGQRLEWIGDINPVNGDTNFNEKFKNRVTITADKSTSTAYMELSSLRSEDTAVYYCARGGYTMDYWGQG VL: AIQLTQSPSSLSASVGDRVTITCRSSQSLVHSNGNTYLHWYQQKPGQAPRLLIYKVSYRFSGVPSRFSGSGSGTEFTLTISSLQPDDFATYYCSQNTHVPRTFGQG", "recorded-result": "1.1 fold of chimera"}
{"binder": "pVxK7b-037-hum22-LC/pVxK7b-037-hum22-HC (antibody, human IgG1, V domains shown, Full-length human IgG1/kappa in CHO supernatant; Variable entries end within framework 4 (...FGQG / ...WGQG); also called Clone 22) VH: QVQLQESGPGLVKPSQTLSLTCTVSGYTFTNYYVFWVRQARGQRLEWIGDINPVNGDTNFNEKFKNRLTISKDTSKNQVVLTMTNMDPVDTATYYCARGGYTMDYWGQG VL: EIVLTQSPATLSVSPGERATLSCRSSQSLVHSNGNTYLHWYQQKPGQAPRLLIYKVSYRFSGVPSRFSGSGSGTDFTFTISSLEAEDAATYYCSQNTHVPRTFGQG", "recorded-result": "1.4 fold of chimera"}
{"binder": "pVxK7b-037-hum02-LC/pVxK7b-037-hum02-HC (antibody, human IgG1, V domains shown, Full-length human IgG1/kappa in CHO supernatant; Variable entries end within framework 4 (...FGQG / ...WGQG); also called Clone 2) VH: QVQLQESGPGLVKPSQTLSLTCTVSGYTFTNYYVFWVRQARGQRLEWIGDINPVNGDTNFNEKFKNRVTISADKSISTAYLQWSSLKASDTAMYYCARGGYTMDYWGQG VL: DVVMTQSPLSLPVTLGQPASISCRSSQSLVHSNGNTYLHWYQQKPGQAPRLLIYKVSYRFSGVPSRFSGSGSGTEFTLTISSLQPDDFATYYCSQNTHVPRTFGQG", "recorded-result": "1.2 fold of chimera"}
